# target of assay: CFTR (Homo sapiens, UniProt P13569)
# Construct: endogenous in cells; host or cells: T84 human colonic cells (ECACC)
# Sequence (P13569 whole entry): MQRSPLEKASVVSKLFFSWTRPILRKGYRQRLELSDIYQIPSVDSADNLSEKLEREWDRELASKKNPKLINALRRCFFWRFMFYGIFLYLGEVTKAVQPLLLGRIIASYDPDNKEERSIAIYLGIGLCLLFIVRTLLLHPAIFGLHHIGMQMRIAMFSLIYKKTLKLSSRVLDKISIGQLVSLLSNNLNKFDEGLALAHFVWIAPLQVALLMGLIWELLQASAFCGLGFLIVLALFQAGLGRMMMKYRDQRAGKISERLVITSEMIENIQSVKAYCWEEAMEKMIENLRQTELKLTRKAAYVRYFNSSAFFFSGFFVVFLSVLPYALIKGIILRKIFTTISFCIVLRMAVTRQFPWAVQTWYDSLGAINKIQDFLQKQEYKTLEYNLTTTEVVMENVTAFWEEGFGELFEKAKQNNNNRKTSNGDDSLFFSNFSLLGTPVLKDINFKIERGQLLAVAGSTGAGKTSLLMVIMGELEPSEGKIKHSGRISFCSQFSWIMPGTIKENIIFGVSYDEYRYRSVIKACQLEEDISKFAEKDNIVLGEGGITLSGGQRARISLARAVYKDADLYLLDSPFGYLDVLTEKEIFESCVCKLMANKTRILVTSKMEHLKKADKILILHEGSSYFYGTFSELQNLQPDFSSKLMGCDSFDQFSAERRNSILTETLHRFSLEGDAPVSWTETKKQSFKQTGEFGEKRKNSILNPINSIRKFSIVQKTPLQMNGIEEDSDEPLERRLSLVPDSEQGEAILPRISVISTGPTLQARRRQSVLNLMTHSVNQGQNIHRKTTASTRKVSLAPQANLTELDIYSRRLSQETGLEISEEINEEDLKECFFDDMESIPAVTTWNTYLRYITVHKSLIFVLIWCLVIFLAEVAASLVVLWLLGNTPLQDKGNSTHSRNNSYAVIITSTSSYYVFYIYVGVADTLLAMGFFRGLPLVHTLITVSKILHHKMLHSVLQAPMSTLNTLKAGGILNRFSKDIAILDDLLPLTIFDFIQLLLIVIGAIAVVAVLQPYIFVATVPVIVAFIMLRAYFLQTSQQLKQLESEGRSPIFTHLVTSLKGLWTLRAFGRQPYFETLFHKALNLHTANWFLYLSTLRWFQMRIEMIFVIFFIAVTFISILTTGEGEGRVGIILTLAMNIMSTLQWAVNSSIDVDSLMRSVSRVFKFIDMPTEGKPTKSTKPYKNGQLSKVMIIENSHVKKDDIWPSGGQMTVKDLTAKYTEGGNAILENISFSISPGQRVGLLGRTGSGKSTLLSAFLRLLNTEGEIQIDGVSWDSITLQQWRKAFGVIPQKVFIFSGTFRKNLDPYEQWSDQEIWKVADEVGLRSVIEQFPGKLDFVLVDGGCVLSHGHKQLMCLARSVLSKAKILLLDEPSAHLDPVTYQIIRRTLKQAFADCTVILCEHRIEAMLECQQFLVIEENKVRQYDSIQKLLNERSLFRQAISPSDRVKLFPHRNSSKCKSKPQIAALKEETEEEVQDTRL
# assay notes: T84 assay (FLIPR membrane potential dye, forskolin/IBMX-stimulated CFTR channel activity)
# Type: cell-based
# settings: isoxazole-containing compounds (Table 10, 10′, 11, 11′), read-out: IC50
pIC50: −log10 of the molar value.
Rule: pIC50 of 5 or more gives Satisfied; anything lower gives Not satisfied.

[[record]]
compound = "CN(Cc1ccc2c(c1)OCO2)C(=O)c1cc(-c2cc(Cl)c(O)c(Cl)c2)on1"
cat = "Not satisfied"

[[record]]
compound = "COc1ccccc1N1CCN(C(=O)c2cc(-c3cc(Br)c(O)c(Br)c3)on2)CC1 [11g]"
cat = "Not satisfied"

[[record]]
compound = "CN(Cc1ccc(Cl)cc1)C(=O)c1cc(-c2cc(Br)c(O)c(Br)c2)on1"
cat = "Satisfied"

[[record]]
compound = "CN(Cc1cccc(C(F)(F)F)c1)C(=O)c1cc(-c2cc(Br)c(O)c(Br)c2)on1"
cat = "Not satisfied"

[[record]]
compound = "CN(Cc1ccc2c(c1)OCO2)C(=O)c1cc(-c2cc(Br)c(O)c(Br)c2)on1"
cat = "Not satisfied"

[[record]]
compound = "CN(Cc1cccc(C(F)(F)F)c1)C(=O)c1cc(-c2cc(Cl)c(O)c(Cl)c2)on1"
cat = "Satisfied"


====

Collected IC50 values appear next to each entry.
# target of assay: CFTR (Homo sapiens, UniProt P13569)
# Construct: endogenous in cells; host or cells: T84 human colonic cells (ECACC)
# assay notes: T84 assay (FLIPR membrane potential dye, forskolin/IBMX-stimulated CFTR channel activity)
# Type: cell-based
# settings: imidazole and triazole-containing compounds (Tables 13, 14, 14′), read-out: IC50 (μM) (T84 assay)
measurement name: IC50 (µM)

[[record]]
compound = "O=C(c1ncn(-c2cc(Cl)c(O)c(Cl)c2)n1)N1CCN(c2cccc(C(F)(F)F)c2)CC1"
target_of_assay = "CFTR (Homo sapiens, UniProt P13569)"
measurement_name = "IC50"
reported_value = 8.15

[[record]]
compound = "CON(Cc1ccc(C(C)(C)C)cc1)C(=O)c1ncn(-c2cc(Cl)c(O)c(Cl)c2)n1 [127i]"
target_of_assay = "CFTR (Homo sapiens, UniProt P13569)"
measurement_name = "IC50"
reported_value = 1.49

[[record]]
compound = "CN(Cc1ccc(C(C)(C)C)cc1)C(=O)c1ncn(-c2cc(Cl)c(O)c(Cl)c2)n1"
target_of_assay = "CFTR (Homo sapiens, UniProt P13569)"
measurement_name = "IC50"
reported_value = 4.26

[[record]]
compound = "O=C(NCc1ccc(F)c(Cl)c1)c1ncn(-c2cc(Cl)c(O)c(Cl)c2)n1 [23i]"
target_of_assay = "CFTR (Homo sapiens, UniProt P13569)"
measurement_name = "IC50"
reported_value = 7.39


====

# target of assay: CFTR (Homo sapiens, UniProt P13569)
# Construct: endogenous in cells; host or cells: T84 human colonic cells (ECACC)
# assay notes: T84 assay (FLIPR membrane potential dye, forskolin/IBMX-stimulated CFTR channel activity)
# Assay type: cell-based
# settings: oxadiazole-containing compounds (a series), average of at least 2 runs unless annotated n = 1, read-out: IC50
pIC50: −log10 of the molar value.
Rule: pIC50 of 5 or more gives fulfilled; anything lower gives not fulfilled.

[[record]]
compound = "O=C(NCc1cc(F)ccc1F)c1noc(-c2cc(Cl)c(O)c(Cl)c2)n1 [113a]"
cat = "not fulfilled"

[[record]]
compound = "CN(Cc1ccc(C(F)(F)F)cc1)C(=O)c1nc(-c2cc(Cl)c(O)c(Cl)c2)no1 [138a]"
cat = "fulfilled"

[[record]]
compound = "CN(Cc1cccc(Oc2ccccc2)c1)C(=O)c1nc(-c2cc(Cl)c(O)c(Cl)c2)no1 [144a]"
cat = "fulfilled"


====

# target of assay: CFTR (Homo sapiens)
# Construct: endogenous in cells; host or cells: T84 human colonic cells (ECACC)
# assay notes: T84 assay (FLIPR membrane potential dye, forskolin/IBMX-stimulated CFTR channel activity)
# Format: cell-based
# settings: oxadiazole-containing compounds (a series), average of at least 2 runs unless annotated n = 1, read-out: IC50
pIC50: −log10 of the molar value.
measurement name: pIC50

[[record]]
compound = "O=C(NCc1ccc(Cl)c(F)c1)c1nc(-c2cc(Cl)c(O)c(Cl)c2)no1 [123a]"
target_of_assay = "CFTR (Homo sapiens)"
measurement_name = "pIC50"
reported_value = 4.78

[[record]]
compound = "O=C(NC(c1ccccc1)c1ccccc1)c1nc(-c2cc(Br)c(O)c(Br)c2)no1 [5a]"
target_of_assay = "CFTR (Homo sapiens)"
measurement_name = "pIC50"
reported_value = 5.28

[[record]]
compound = "O=C(c1noc(-c2cc(Cl)c(O)c(Cl)c2)n1)N(CCNCc1ccccc1)Cc1ccccc1 [119a]"
target_of_assay = "CFTR (Homo sapiens)"
measurement_name = "pIC50"
reported_value = 4.62

[[record]]
compound = "O=C(c1nc(-c2cc(Br)c(O)c(Br)c2)no1)N1CCN(c2cccc(F)c2)CC1 [32a]"
target_of_assay = "CFTR (Homo sapiens)"
measurement_name = "pIC50"
reported_value = 4.76

[[record]]
compound = "O=C(c1nc(-c2cc(Cl)c(O)c(Cl)c2)no1)N(Cc1cccnc1)Cc1cccnc1 [162a]"
target_of_assay = "CFTR (Homo sapiens)"
measurement_name = "pIC50"
reported_value = 5.03

[[record]]
compound = "O=C(NCc1cccc(-n2cccn2)c1)c1noc(-c2cc(Cl)c(O)c(Cl)c2)n1 [161a]"
target_of_assay = "CFTR (Homo sapiens)"
measurement_name = "pIC50"
reported_value = 5.21

[[record]]
compound = "O=C(COc1c(Br)cc(-c2noc(C(=O)N3CCC(Cc4ccccc4)CC3)n2)cc1Br)N(CCO)CCO [71a]"
target_of_assay = "CFTR (Homo sapiens)"
measurement_name = "pIC50"
reported_value = 4.72

[[record]]
compound = "CC(C)(C)C(=O)CN(Cc1ccccc1)C(=O)c1nc(-c2cc(Cl)c(O)c(Cl)c2)no1 [151a]"
target_of_assay = "CFTR (Homo sapiens)"
measurement_name = "pIC50"
reported_value = 5.20

[[record]]
compound = "O=C(NCc1ccc2sccc2c1)c1nc(-c2cc(Br)c(O)c(Br)c2)no1 [10a]"
target_of_assay = "CFTR (Homo sapiens)"
measurement_name = "pIC50"
reported_value = 5.14

[[record]]
compound = "COC(=O)C1CCN(C(=O)COc2c(Br)cc(-c3noc(C(=O)N4CCC(Cc5ccccc5)CC4)n3)cc2Br)CC1 [68a]"
target_of_assay = "CFTR (Homo sapiens)"
measurement_name = "pIC50"
reported_value = 4.99

[[record]]
compound = "O=C(NCc1ccc(F)c(Cl)c1)c1nc(-c2cc(Cl)c(O)c(Cl)c2)no1 [130a]"
target_of_assay = "CFTR (Homo sapiens)"
measurement_name = "pIC50"
reported_value = 5.03

[[record]]
compound = "O=C(CN(Cc1cccc(C(F)(F)F)c1)C(=O)c1nc(-c2cc(Cl)c(O)c(Cl)c2)no1)c1ccccc1 [90a]"
target_of_assay = "CFTR (Homo sapiens)"
measurement_name = "pIC50"
reported_value = 5.08

[[record]]
compound = "CN(Cc1ccc(Oc2ccccc2)cc1)C(=O)c1nc(-c2cc(Cl)c(O)c(Cl)c2)no1 [142a]"
target_of_assay = "CFTR (Homo sapiens)"
measurement_name = "pIC50"
reported_value = 4.99

[[record]]
compound = "CN(C)c1ccc(CNC(=O)c2nc(-c3cc(Cl)c(O)c(Cl)c3)no2)cc1 [133a]"
target_of_assay = "CFTR (Homo sapiens)"
measurement_name = "pIC50"
reported_value = 4.75

[[record]]
compound = "Cc1ccc(CNC(=O)c2noc(-c3cc(Cl)c(O)c(Cl)c3)n2)cc1 [81a]"
target_of_assay = "CFTR (Homo sapiens)"
measurement_name = "pIC50"
reported_value = 4.83

[[record]]
compound = "O=C(NCc1ccc(Cl)cc1)c1nc(-c2cc(Br)c(O)c(Br)c2)no1 [40a]"
target_of_assay = "CFTR (Homo sapiens)"
measurement_name = "pIC50"
reported_value = 4.57

[[record]]
compound = "O=C(NCc1ccc(Oc2ccc(F)cc2)cc1)c1nc(-c2cc(Cl)c(O)c(Cl)c2)no1 [171a]"
target_of_assay = "CFTR (Homo sapiens)"
measurement_name = "pIC50"
reported_value = 5.13

[[record]]
compound = "O=C(c1nc(-c2cc(Br)c(O)c(Br)c2)no1)N1CCN(c2cccc(C(F)(F)F)c2)CC1 [6a]"
target_of_assay = "CFTR (Homo sapiens)"
measurement_name = "pIC50"
reported_value = 5.21

[[record]]
compound = "O=C(NCc1cccc(C(F)(F)F)c1)c1noc(-c2cc(Cl)c(O)c(Cl)c2)n1 [74a]"
target_of_assay = "CFTR (Homo sapiens)"
measurement_name = "pIC50"
reported_value = 5.59

[[record]]
compound = "O=C(NCc1ccc(OC(F)(F)F)cc1)c1nc(-c2cc(Br)c(O)c(Br)c2)no1 [29a]"
target_of_assay = "CFTR (Homo sapiens)"
measurement_name = "pIC50"
reported_value = 4.86

[[record]]
compound = "O=C(NCCC(c1ccccc1)c1ccccc1)c1nc(-c2cc(Br)c(O)c(Br)c2)no1 [14a]"
target_of_assay = "CFTR (Homo sapiens)"
measurement_name = "pIC50"
reported_value = 5.05

[[record]]
compound = "O=C(NCc1ccc(C(F)(F)F)cc1)c1nc(-c2cc(Br)c(O)c(Br)c2)no1 [37a]"
target_of_assay = "CFTR (Homo sapiens)"
measurement_name = "pIC50"
reported_value = 4.64

[[record]]
compound = "O=C(NCc1cc(Cl)cc(Cl)c1)c1noc(-c2cc(Cl)c(O)c(Cl)c2)n1 [85a]"
target_of_assay = "CFTR (Homo sapiens)"
measurement_name = "pIC50"
reported_value = 5.63

[[record]]
compound = "O=C(c1nc(-c2cc(Cl)c(O)c(Cl)c2)no1)N(Cc1ccc(Oc2ccccc2)cc1)Cc1cccnc1 [168a]"
target_of_assay = "CFTR (Homo sapiens)"
measurement_name = "pIC50"
reported_value = 5.68

[[record]]
compound = "O=C(NCc1cc(C(F)(F)F)cc(C(F)(F)F)c1)c1nc(-c2cc(Br)c(O)c(Br)c2)no1 [20a]"
target_of_assay = "CFTR (Homo sapiens)"
measurement_name = "pIC50"
reported_value = 4.98

[[record]]
compound = "O=C(NCc1cccc(C(F)(F)F)c1)c1nc(-c2cc(Cl)c(O)c(Cl)c2)no1 [134a]"
target_of_assay = "CFTR (Homo sapiens)"
measurement_name = "pIC50"
reported_value = 5.06

[[record]]
compound = "O=C(NCc1ccc(Oc2ccccc2)cc1)c1noc(-c2cc(Cl)c(O)c(Cl)c2)n1 [79a]"
target_of_assay = "CFTR (Homo sapiens)"
measurement_name = "pIC50"
reported_value = 4.76

[[record]]
compound = "O=C(NCc1cccc(F)c1)c1noc(-c2cc(Cl)c(O)c(Cl)c2)n1 [116a]"
target_of_assay = "CFTR (Homo sapiens)"
measurement_name = "pIC50"
reported_value = 4.74

[[record]]
compound = "CC(NC(=O)c1nc(-c2cc(Cl)c(O)c(Cl)c2)no1)c1ccc(Cl)cc1 (centres unmarked) [149a]"
target_of_assay = "CFTR (Homo sapiens)"
measurement_name = "pIC50"
reported_value = 5.17

[[record]]
compound = "O=C(NCc1ccc(N2CCCCC2)cc1)c1nc(-c2cc(Cl)c(O)c(Cl)c2)no1 [166a]"
target_of_assay = "CFTR (Homo sapiens)"
measurement_name = "pIC50"
reported_value = 5.21

[[record]]
compound = "CN(Cc1ccc(Cl)cc1)C(=O)c1noc(-c2cc(Cl)c(O)c(Cl)c2)n1 [84a]"
target_of_assay = "CFTR (Homo sapiens)"
measurement_name = "pIC50"
reported_value = 5.39

[[record]]
compound = "CC(C)(C)C(=O)N1CCN(C(=O)c2nc(-c3cc(Br)c(O)c(Br)c3)no2)CC1 [93a]"
target_of_assay = "CFTR (Homo sapiens)"
measurement_name = "pIC50"
reported_value = 5.24

[[record]]
compound = "COc1ccc(Oc2ccc(CNC(=O)c3nc(-c4cc(Cl)c(O)c(Cl)c4)no3)cc2)cc1F [183a]"
target_of_assay = "CFTR (Homo sapiens)"
measurement_name = "pIC50"
reported_value = 4.93

[[record]]
compound = "O=C(O)COc1c(Br)cc(-c2noc(C(=O)N3CCC(Cc4ccccc4)CC3)n2)cc1Br [39a]"
target_of_assay = "CFTR (Homo sapiens)"
measurement_name = "pIC50"
reported_value = 4.57

[[record]]
compound = "Cc1ccc(Oc2ccc(CNC(=O)c3nc(-c4cc(Cl)c(O)c(Cl)c4)no3)cc2)cc1Cl [193a]"
target_of_assay = "CFTR (Homo sapiens)"
measurement_name = "pIC50"
reported_value = 4.87

